This section presents variants with their documented self-cleavage values.
B1: LINE1-mini (parent)
chain: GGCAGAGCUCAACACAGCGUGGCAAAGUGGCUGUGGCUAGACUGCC

- Variants of: B1
- test_name: self-cleavage, relative activity (ratio to wild type); higher = more cleavage; in vitro, sequencing; the parent is a self-cleaving ribozyme
Answer as a number with no unit attached.

Worked examples, 2 variants total:
GGCAGAGGUCUACACAGCGUGGCAAAGUGGCUGUGGCUAGACUGCC [C8G A11U] : 0.03
GGCAAAGCUCAACACAGCCUGGCAAAGUGGCUGUGGCUAGACUGCC [G5A G19C] : 0.06

Summary for this variant, GGCAGAGCUCAGCACAGCGUGGCAAAGUGGCAGUGGCUAGACUGCC [A12G U32A] : self-cleavage is 0.15

Summary for this variant, GGCUGAGCUCAACACAGCGUGGCAAAGUGGCUGUAGCUAGACUGCC [A4U G35A] : self-cleavage is 0.14

Summary for this variant, GGCAGAGCGCAACACAGCGUGGCAAAGUGGCUGUGGCUAGACUGUC [U9G C45U] : self-cleavage is 0.16

Summary for this variant, GGCAGAGCUCAACACCGCGUGGCAAAGUGGCUGUGGCUAGGCUGCC [A16C A41G] : self-cleavage is 0.02

Summary for this variant, GGCAGAGAUCAACACAGCGUGGCAAAGUGGCUGUGGCUAGACUGUC [C8A C45U] : self-cleavage is 0.32

Values from the RNAGym collection of RNA variant scans (doi:10.7554/elife.90254)
